System: A549 NSCLC cells
PROCEDURE DETAILS: Activity of other esters against NSCLC (FIG. 13A-D)
Type: cell-based
RUN CONDITIONS: Homo sapiens; A549, 24 h, single experiment; read-out: IC50 24 h
EXPERIMENTAL ENDPOINT: IC50 (µM)
Quick reminder: number only, in µM, skip the unit.

Reference set (2 entries):
{"columns": ["COMPOUND", "IC50 (µM)"],
 "data": [
  ["CN(CCCCCl)P(=O)(CP(=O)(OCc1ccccc1)N(C)CCCCCl)OCc1ccccc1 (stereo not drawn)", 21.6],
  ["CN(CCCCCl)P(=O)(OCCc1ccc([N+](=O)[O-])cc1)C(Cl)(Cl)P(=O)(OCCc1ccc([N+](=O)[O-])cc1)N(C)CCCCCl (stereo not drawn)", 4.8]
]}

For the next question, use this compound.
Output measured IC50 for this item: COP(=O)(N(C)CCCCCl)C(Cl)(Cl)P(=O)(OC)N(C)CCCCCl (stereo not drawn)
93.4
